Data origin, for the record: ChEMBL document CHEMBL3988442

target: Sialic acid-binding Ig-like lectin 9 (Homo sapiens) (UniProt Q9Y336); test: Hs-Siglec9 ALPHAscreen SOP 20170721; design: scale not given: direction of the effect not stated beside the values; conditions: 10 µM
Sequence (Q9Y336 whole entry): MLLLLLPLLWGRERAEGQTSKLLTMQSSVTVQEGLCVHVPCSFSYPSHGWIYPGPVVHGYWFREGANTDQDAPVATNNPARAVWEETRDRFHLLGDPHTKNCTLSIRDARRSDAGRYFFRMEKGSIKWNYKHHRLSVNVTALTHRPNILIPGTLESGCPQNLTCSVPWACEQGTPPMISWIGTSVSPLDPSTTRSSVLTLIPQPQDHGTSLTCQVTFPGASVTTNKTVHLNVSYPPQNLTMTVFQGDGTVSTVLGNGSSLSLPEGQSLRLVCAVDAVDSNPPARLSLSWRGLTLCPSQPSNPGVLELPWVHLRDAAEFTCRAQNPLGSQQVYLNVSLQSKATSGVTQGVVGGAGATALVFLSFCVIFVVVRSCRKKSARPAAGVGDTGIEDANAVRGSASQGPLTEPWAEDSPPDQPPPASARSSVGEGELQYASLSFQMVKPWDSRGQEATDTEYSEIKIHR
Quick list: Percent Effect per entry.
property_label: Percent Effect (%)

| compound | property_label | readout_number |
| --- | --- | --- |
| Cc1cc(C)n(C2CN(CC(O)c3ccc(F)cc3)C2)n1 (stereo unspecified) | Percent Effect | 8.34 |
| CN(Cc1ccsc1)C(=O)c1cccc(S(=O)(=O)NC(C)(C)C)c1 | Percent Effect | -1.29 |
| O=C(CNC(=O)N1CCc2c([nH]c3ccc(Cl)cc23)C1)N1CCOCC1 | Percent Effect | -3.55 |
| O=C(NCC1CC1)[C@H]1C[C@H]2OCC[C@H]2N(Cc2ccoc2)C1 | Percent Effect | -14 |
| COc1cccc(CCC2CCCN(C(=O)c3n[nH]c4c3CCC4)C2)c1 (stereo unspecified) | Percent Effect | 4.19 |
| CC(C)c1nnc2n1CCN(CC(=O)Nc1nncs1)C2 | Percent Effect | -3.59 |
| NC(=O)C1CCN(c2nc3nccc(-c4ccccn4)c3c(=O)[nH]2)CC1 | Percent Effect | -4.82 |
| Cc1occc1C(=O)N1CCCC2(CCN(CCN3CCCC3)C2=O)C1 (stereo unspecified) | Percent Effect | 14.5 |
| CS(=O)(=O)NC1CCc2c(ccc(=O)n2CC2CC2)C1 (stereo unspecified) | Percent Effect | 2.38 |
| O=C(NCC(Cc1cccc(F)c1)N1CCCC1=O)c1ccccc1 (stereo unspecified) | Percent Effect | -11 |
| CN(Cc1cnn(C)c1)C(=O)NC1CCS(=O)(=O)C1 (stereo unspecified) | Percent Effect | -0.91 |

---

Molecular target: Tyrosyl-tRNA synthetase, putative (Trypanosoma cruzi (strain CL Brener)) (UniProt Q4DSP6)
Sequence (whole entry): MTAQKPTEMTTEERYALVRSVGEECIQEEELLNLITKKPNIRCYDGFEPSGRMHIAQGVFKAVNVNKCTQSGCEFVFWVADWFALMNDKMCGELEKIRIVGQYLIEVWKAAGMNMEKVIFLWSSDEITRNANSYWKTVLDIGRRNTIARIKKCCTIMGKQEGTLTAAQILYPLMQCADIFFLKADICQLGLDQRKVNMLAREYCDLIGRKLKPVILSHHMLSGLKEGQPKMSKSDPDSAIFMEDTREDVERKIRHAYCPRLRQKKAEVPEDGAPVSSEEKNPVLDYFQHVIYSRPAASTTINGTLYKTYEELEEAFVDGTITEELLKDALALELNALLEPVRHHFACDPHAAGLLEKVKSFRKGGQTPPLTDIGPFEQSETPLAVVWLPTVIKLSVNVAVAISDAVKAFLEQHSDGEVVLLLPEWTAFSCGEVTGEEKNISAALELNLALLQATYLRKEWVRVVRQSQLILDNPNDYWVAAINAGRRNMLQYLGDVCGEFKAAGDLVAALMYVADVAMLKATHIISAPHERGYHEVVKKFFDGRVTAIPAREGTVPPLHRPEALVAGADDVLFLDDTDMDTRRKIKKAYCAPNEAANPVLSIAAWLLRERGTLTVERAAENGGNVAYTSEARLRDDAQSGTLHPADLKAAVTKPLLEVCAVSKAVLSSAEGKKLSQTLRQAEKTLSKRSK
Assay: Trypanosoma cruzi tyrosyl tRNA synthetase (TcYRS) SOP
Type: functional
Design: scale not given: direction of the effect not stated beside the values
Conditions: 30 µM

| compound | unit_name | Percent Effect |
| --- | --- | --- |
| CCOCC(=O)N1C[C@@H]2COC[C@H](c3nc(C)no3)[C@@H]2C1 | % | -1.22 |
| CNC(=O)CC1CCN(Cc2nc(-c3ccc(SC)cc3)oc2C)CC1 | % | 0 |
| COCCN1CCOCC2(CCCN(Cc3ccc(C)o3)C2)C1 (stereo unspecified) | % | 2.5 |
| Cc1cc(CN2CCN(C(=O)c3sccc3C3CC3)CC2)on1 | % | 18.8 |
| COc1cc(N2C[C@@H]3COC[C@]3(COCc3cccc(C)n3)C2)ncn1 | % | 2.56 |
| COCC1CC2(CCN(C(=O)c3cccn3C)CC2)CN1C(C)C (stereo unspecified) | % | 3.66 |
| CCn1nc(C)c2nc(C(C)C)nc(N3CCCCC3)c21 | % | 6.17 |
| CC(O)CN1CCN(C(=O)c2cnn(-c3ccccc3F)c2)CC1 (stereo unspecified) | % | 8.64 |
| CCn1cnnc1CNC(=O)c1ccc(Cl)cc1F | % | 17.7 |
| Cc1nc(C)n(CC2CCCN(CC(=O)Nc3c(C)n[nH]c3C)C2)n1 (stereo unspecified) | % | 17.1 |
| Cc1cnn(CCNCC(=O)NCCOc2ccccc2)c1 | % | -6.17 |
